Test system: EMT-6 tumors
Experiment: Biodistribution of 18F-labeled ligands in mice bearing EMT-6 tumors
Type: in vivo, female Balb/c mice
Conditions: 120 min after i.v. injection
recorded-metric: Biodistribution: kidney (%ID/g)
Reply numerically in %ID/g, unit not repeated.

Please review the entries below; each comes with its answer.
COc1cc2c(cc1OC)CN(CCCCNC(=O)c1cc(Br)ccc1OCC[18F])CC2 [[^18F]3d]	1.12
COc1cc2c(cc1OC)CN(CCCCNC(=O)c1cc(C)ccc1OCC[18F])CC2 [[^18F]3c]	0.87
COc1cc2c(cc1OC)CN(CCCCNC(=O)c1cc(I)ccc1OCC[18F])CC2 [[^18F]3e]	3.92

Here is the next item to consider.
Using the record for COc1cc2c(cc1OC)CN(CCCCNC(=O)c1cc(I)cc(OC)c1OCC[18F])CC2 [[^18F]3f] , state its measured Biodistribution: kidney.
1.34

----------
System: EMT-6 tumors
Assay: Biodistribution of 18F-labeled ligands in mice bearing EMT-6 tumors
Assay type: in vivo, female Balb/c mice
Details: 120 min after i.v. injection
Protocol: This example illustrates in vivo evaluation of compounds of the present teachings. All animal experiments were conducted in compliance with the Guidelines for the Care and Use of Research Animals established by Washington University's Animal Studies Committee. […] After counting, the percentage of the injected dose per gram of tissue (%ID/g) was calculated. The tumor/organ ratios were calculated by dividing the %ID/g of the tumor by the %ID/g of each organ.
recorded-metric: Biodistribution: liver (%ID/g)
Reply numerically in %ID/g, unit not repeated.

Please review the entries below; each comes with its answer.
COc1cc2c(cc1OC)CN(CCCCNC(=O)c1cc(I)ccc1OCC[18F])CC2 [[^18F]3e]	4.25
COc1cc2c(cc1OC)CN(CCCCNC(=O)c1cc(Br)ccc1OCC[18F])CC2 [[^18F]3d]	2.30
COc1cc2c(cc1OC)CN(CCCCNC(=O)c1cc(I)cc(OC)c1OCC[18F])CC2 [[^18F]3f]	2.61

Here is the next item to consider.
Using the record for COc1cc2c(cc1OC)CN(CCCCNC(=O)c1cc(C)ccc1OCC[18F])CC2 [[^18F]3c] , state its measured Biodistribution: liver.
2.05

----------
Test system: EMT-6 tumors
Assay: Biodistribution of 18F-labeled ligands in mice bearing EMT-6 tumors
Format: in vivo, female Balb/c mice
Details: 120 min after i.v. injection
Recorded Biodistribution: fat for the following compounds
Reply numerically in %ID/g, unit not repeated.

Using the record for COc1cc2c(cc1OC)CN(CCCCNC(=O)c1cc(I)ccc1OCC[18F])CC2 [[^18F]3e] , state its measured Biodistribution: fat.
0.44

Using the record for COc1cc2c(cc1OC)CN(CCCCNC(=O)c1cc(Br)ccc1OCC[18F])CC2 [[^18F]3d] , state its measured Biodistribution: fat.
0.15

Using the record for COc1cc2c(cc1OC)CN(CCCCNC(=O)c1cc(C)ccc1OCC[18F])CC2 [[^18F]3c] , state its measured Biodistribution: fat.
0.08

Using the record for COc1cc2c(cc1OC)CN(CCCCNC(=O)c1cc(I)cc(OC)c1OCC[18F])CC2 [[^18F]3f] , state its measured Biodistribution: fat.
0.17
